measurement-description: Oral bioavailability of ibuprofen crushed tablets in control rats
Format: in vivo
details: male, Sprague-Dawley, rat, plasma, 20 mg/kg, oral 20 mg/kg ibuprofen as crushed tablets, read-out: AUC (0-8)
Experimental: The animal models are Adult male Sprague-Dawley rats with body weight of 250-300 g, and which were cared for in accordance with the principles and guidelines of the Canadian Council of Animal Care. All rats were catheterized in the right jugular vein for sample collection. The tablets were crushed gently and small pieces were administered into the stomach via a plastic tube followed by 0.5 mL tap water. […] They had free access to water.
endpoint: AUC(0-t) (µg·h/mL)
Give the value, in units of µg·h/mL, as a plain number.

Query: Recorded AUC(0-t) for CC(C)Cc1ccc(C(C)C(=O)O)cc1 (racemic) [ibuprofen, (±)-2-(4-Isobutylphenyl)propionic acid] , please?
Result: 139
